Source: ChEMBL document CHEMBL1147936

- experimentalTarget: 5-hydroxytryptamine receptor 3A (Cavia porcellus)
- Sequence (whole entry): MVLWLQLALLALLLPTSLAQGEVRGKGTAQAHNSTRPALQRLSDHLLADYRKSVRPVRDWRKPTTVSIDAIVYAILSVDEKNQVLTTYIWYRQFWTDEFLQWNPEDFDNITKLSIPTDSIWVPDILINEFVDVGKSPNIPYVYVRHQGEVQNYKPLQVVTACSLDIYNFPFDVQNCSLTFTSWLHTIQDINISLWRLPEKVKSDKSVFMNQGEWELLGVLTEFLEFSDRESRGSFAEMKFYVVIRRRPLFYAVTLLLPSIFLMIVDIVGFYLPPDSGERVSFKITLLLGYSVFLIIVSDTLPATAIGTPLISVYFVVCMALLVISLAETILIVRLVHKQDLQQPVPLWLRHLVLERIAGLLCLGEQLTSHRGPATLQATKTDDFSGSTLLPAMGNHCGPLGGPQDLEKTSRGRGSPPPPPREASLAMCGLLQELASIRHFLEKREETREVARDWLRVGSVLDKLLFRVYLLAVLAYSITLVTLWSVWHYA
- experimentNotes: Intrinsic activity at 5HT3 receptor in Hartley guinea-pig ileum assessed as muscle contraction relative to 5-hydroxytryptamine
- Assay type: tissue-based
Binarize Intrinsic activity at 0.6; below is yes (1), at or above is no (0).

structure: Cc1cc(Cl)c2oc(N3CCN(C)CC3)nc2c1
categoryLabel: yes (1)

structure: CN1CCN(c2nc3cc(Br)ccc3o2)CC1
categoryLabel: yes (1)

structure: CN1CCN(c2nc3ccccc3o2)CC1
categoryLabel: no (0)

structure: CN1CCN(c2nc3cc([N+](=O)[O-])ccc3o2)CC1
categoryLabel: yes (1)

structure: Cc1cc(Cl)cc2nc(N3CCN(C)CC3)oc12
categoryLabel: yes (1)

structure: COc1cc(C)cc2nc(N3CCN(C)CC3)oc12
categoryLabel: yes (1)

structure: Cc1cccc2nc(N3CCN(C)CC3)oc12
categoryLabel: yes (1)

structure: COc1ccc2oc(N3CCN(C)CC3)nc2c1
categoryLabel: no (0)

structure: CCc1cc(Cl)cc2nc(N3CCN(C)CC3)oc12
categoryLabel: yes (1)

structure: CN1CCN(c2nc3cc(F)ccc3o2)CC1
categoryLabel: no (0)

structure: CCc1cccc2nc(N3CCN(C)CC3)oc12
categoryLabel: yes (1)

structure: Cc1ccc2oc(N3CCN(C)CC3)nc2c1
categoryLabel: no (0)

structure: COc1cc(Cl)cc2nc(N3CCN(C)CC3)oc12
categoryLabel: no (0)

structure: CN1CCN(c2nc3cc(N)ccc3o2)CC1
categoryLabel: no (0)

structure: NCCc1c[nH]c2ccc(O)cc12
categoryLabel: no (0)

structure: Cc1cc(C)c2oc(N3CCN(C)CC3)nc2c1
categoryLabel: no (0)

structure: CCc1cc(C)cc2nc(N3CCN(C)CC3)oc12
categoryLabel: yes (1)

structure: CN1CCN(c2nc3cc(Cl)cc(Cl)c3o2)CC1
categoryLabel: yes (1)

structure: CN1CCN(c2nc3cccc(Cl)c3o2)CC1
categoryLabel: yes (1)

structure: CN1CCN(c2nc3cc(Cl)ccc3o2)CC1
categoryLabel: yes (1)

* * *

- experimentalTarget: 5-hydroxytryptamine receptor 3A (Cavia porcellus) (UniProt O70212)
- experimentNotes: Antagonist activity at 5HT3 receptor in Hartley guinea-pig ileum assessed as effect on 5-hydroxytryptamine-induced muscle contraction
- Assay type: functional, tissue-based
- Parameters: concentration or dose not given beside the values
Activity strictly less than 90% = true (1). Otherwise false (0).

compound: CCc1ccc2oc(N3CCN(C)CC3)nc2c1
categoryLabel: true (1)

compound: CN1CCN(c2nc3ccccc3o2)CC1
categoryLabel: true (1)

compound: CC(=O)c1ccc2oc(N3CCN(C)CC3)nc2c1
categoryLabel: true (1)

compound: CCc1cc(C)cc2nc(N3CCN(C)CC3)oc12
categoryLabel: false (0)

compound: CN1C2CCCC1CC(NC(=O)c1nn(C)c3ccccc13)C2 (stereo not drawn)
categoryLabel: false (0)

compound: Cc1cc(Cl)c2oc(N3CCN(C)CC3)nc2c1
categoryLabel: false (0)

compound: CCc1cc(Cl)cc2nc(N3CCN(C)CC3)oc12
categoryLabel: false (0)

compound: COc1cccc2nc(N3CCN(C)CC3)oc12
categoryLabel: true (1)
